# test_protocol: Inhibition of gamma-secretase assessed as inhibition of Abeta40 generation at 1 uM
assay_endpoint: inhibition (%)

[A] C[C@H](NC(=O)[C@@H](NC(=O)Cc1cc(F)cc(F)c1)c1ccccc1)C(=O)NCc1ccc(C(=O)c2ccc(CNCCCCCC(=O)NCCCN(C)S(=O)(=O)c3ccc(C(=O)NCCCCCC(=O)CCCC[C@@H]4SC[C@@H]5NC(=O)N[C@@H]54)cc3[N+](=O)[O-])cc2)cc1
[B] C[C@H](NC(=O)[C@@H](NC(=O)Cc1cc(F)cc(F)c1)c1ccccc1)C(=O)NCc1ccc(C(=O)c2ccc(CNCC(=O)NCCCCCCCN(C)S(=O)(=O)c3ccc(C(=O)NCCCCCC(=O)CCCC[C@@H]4SC[C@@H]5NC(=O)N[C@@H]54)cc3[N+](=O)[O-])cc2)cc1
Please indicate which entry, A or B , has the lower recorded inhibition value. Choose, then provide that item's label.
A

---

# study_target: Gamma-secretase (Homo sapiens) (UniProt Q96BI3+Q9NZ42+Q8WW43+P49768+Q92542+P49810)
# test_protocol: Binding affinity to gamma-secretase in human HeLa cell lysate assessed as presenilin 1 C-terminal fragment photolabeling by Western blotting
# Assay type: cell-free
Active and inactive are the calls of the source. No cut-off for these calls is given here.
assay_endpoint: Activity

Answered examples (4):
C[C@H](NC(=O)[C@@H](NC(=O)Cc1cc(F)cc(F)c1)c1ccccc1)C(=O)NCc1ccc(C(=O)c2ccc(CNCCCCCC(=O)NCCCN(C)S(=O)(=O)c3ccc(C(=O)NCCCCCC(=O)CCCC[C@@H]4SC[C@@H]5NC(=O)N[C@@H]54)cc3[N+](=O)[O-])cc2)cc1 :: Active
C[C@H](NC(=O)[C@@H](NC(=O)Cc1cc(F)cc(F)c1)c1ccccc1)C(=O)NCc1ccc(C(=O)c2ccc(CNCCCCCC(=O)NCCCCCCCN(C)S(=O)(=O)c3ccc(C(=O)NCCCCCC(=O)CCCC[C@@H]4SC[C@@H]5NC(=O)N[C@@H]54)cc3[N+](=O)[O-])cc2)cc1 :: Active
C[C@H](NC(=O)[C@@H](NC(=O)Cc1cc(F)cc(F)c1)c1ccccc1)C(=O)NCc1ccc(C(=O)c2ccc(CNCCCCCCCC(=O)NCCCCCCCN(C)S(=O)(=O)c3ccc(C(=O)NCCCCCC(=O)CCCC[C@@H]4SC[C@@H]5NC(=O)N[C@@H]54)cc3[N+](=O)[O-])cc2)cc1 :: Active
C[C@H](NC(=O)[C@@H](NC(=O)Cc1cc(F)cc(F)c1)c1ccccc1)C(=O)NCc1ccc(C(=O)c2ccc(CNCC(=O)NCCCCCCCN(C)S(=O)(=O)c3ccc(C(=O)NCCCCCC(=O)CCCC[C@@H]4SC[C@@H]5NC(=O)N[C@@H]54)cc3[N+](=O)[O-])cc2)cc1 :: Active

Consider the additional compound presented here.
Activity for C[C@H](NC(=O)[C@@H](NC(=O)Cc1cc(F)cc(F)c1)c1ccccc1)C(=O)NCc1ccc(C(=O)c2ccc(CNCCCCCCCC(=O)NCCCN(C)S(=O)(=O)c3ccc(C(=O)NCCCCCC(=O)CCCC[C@@H]4SC[C@@H]5NC(=O)N[C@@H]54)cc3[N+](=O)[O-])cc2)cc1 ?
Active

---

# test_protocol: Inhibition of gamma-secretase assessed as inhibition of Abeta42 generation at 1 uM
assay_endpoint: inhibition (%)

Answered examples (2):
C[C@H](NC(=O)[C@@H](NC(=O)Cc1cc(F)cc(F)c1)c1ccccc1)C(=O)NCc1ccc(C(=O)c2ccc(CNCCCCCCCC(=O)NCCCN(C)S(=O)(=O)c3ccc(C(=O)NCCCCCC(=O)CCCC[C@@H]4SC[C@@H]5NC(=O)N[C@@H]54)cc3[N+](=O)[O-])cc2)cc1 :: 66.2
C[C@H](NC(=O)Cc1cc(F)cc(F)c1)C(=O)N[C@H](C(=O)OC(C)(C)C)c1ccccc1 :: 76.3

[1] C[C@H](NC(=O)[C@@H](NC(=O)Cc1cc(F)cc(F)c1)c1ccccc1)C(=O)NCc1ccc(C(=O)c2ccc(CNCCCCCCCC(=O)NCCCCCCCN(C)S(=O)(=O)c3ccc(C(=O)NCCCCCC(=O)CCCC[C@@H]4SC[C@@H]5NC(=O)N[C@@H]54)cc3[N+](=O)[O-])cc2)cc1
[2] C[C@H](NC(=O)[C@@H](NC(=O)Cc1cc(F)cc(F)c1)c1ccccc1)C(=O)NCc1ccc(C(=O)c2ccc(CNCCCCCC(=O)NCCCCCCCN(C)S(=O)(=O)c3ccc(C(=O)NCCCCCC(=O)CCCC[C@@H]4SC[C@@H]5NC(=O)N[C@@H]54)cc3[N+](=O)[O-])cc2)cc1
Between the entries labelled 1 and 2 , which has a larger inhibition value on record? Choose, then provide that item's label.
1
(1: 89.3%, 2: 59.3%)
